# experimentalTarget: aromatase (CYP19A1) (Homo sapiens, UniProt P11511)
# Sequence (P11511 whole entry): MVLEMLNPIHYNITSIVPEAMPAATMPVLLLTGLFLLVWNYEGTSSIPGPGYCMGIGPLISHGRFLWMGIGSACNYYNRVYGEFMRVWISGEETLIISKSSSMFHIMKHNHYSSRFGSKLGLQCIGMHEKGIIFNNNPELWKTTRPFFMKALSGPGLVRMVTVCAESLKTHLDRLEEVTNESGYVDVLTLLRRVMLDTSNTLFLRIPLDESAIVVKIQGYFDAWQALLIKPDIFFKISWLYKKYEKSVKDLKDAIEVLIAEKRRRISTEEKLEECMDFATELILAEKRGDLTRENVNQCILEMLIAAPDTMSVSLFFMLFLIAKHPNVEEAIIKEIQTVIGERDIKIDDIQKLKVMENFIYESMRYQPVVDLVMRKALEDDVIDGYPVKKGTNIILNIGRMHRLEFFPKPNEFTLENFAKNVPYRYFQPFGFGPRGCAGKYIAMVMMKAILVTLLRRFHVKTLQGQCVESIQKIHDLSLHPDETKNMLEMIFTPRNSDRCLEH
# methodNotes: Aromatase inhibition assay
# Format: biochemical
quantityMeasured: Aromatase inhibitory activity (in words)

COc1ccc(OC)c2c1c(C)cc(=O)n2C = submicromolar range
COc1cc(OC)c2[nH]c(=O)cc(C)c2c1 = inactive
COc1cc(OC)c2c(c1)c(C)cc(=O)n2C = submicromolar range
Cc1cc(=O)n(C)c2ccccc12 = inactive
COc1c(OC)c(OC)c2c(c(C)cc(=O)n2C)c1OC = submicromolar range

Please list Aromatase inhibitory activity (in words) recorded for the compound "Cc1cc(=O)[nH]c2ccccc12"
inactive

###

Please go through the items and note down their IC50 at 72 h.
# methodNotes: Cytotoxicity testing
# Assay type: cell-based
# experimentalSetup: human, LU lung cancer cells

Example molecules with recorded IC50 at 72 h:
COc1cc(OC)c2[nH]c(=O)cc(C)c2c1 [1i, 6,8-Dimethoxy-4-methylquinolin-2(1H)-one] = > 91.3 µM
COc1cc2c(C)cc(=O)[nH]c2c(OC)c1OC [1m] = > 80.3 µM
COc1ccc2c(C)cc(=O)[nH]c2c1OC [1g, 7,8-Dimethoxy-4-methylquinolin-2(1H)-one] = > 91.3 µM
Cc1cc(=O)[nH]c2ccccc12 [1c, 4-Methylquinolin-2(1H)-one] = > 126 µM
COc1c(OC)c(OC)c2c(c(C)cc(=O)n2C)c1OC [1r] = > 68.2 µM

Take each entry in turn and give its IC50 at 72 h.
1. COc1ccc(OC)c2c1c(C)cc(=O)n2C [1l]
2. COc1cc(OC)c2c(c1)c(C)cc(=O)n2C [1j]

> 85.7 µM
> 85.8 µM

###

Provide the reported IC50 at 72 h of each item.
# methodNotes: Cytotoxicity testing
# Assay type: cell-based
# experimentalSetup: human, MCF7 breast cells

Sample records with IC50 at 72 h:
COc1ccc2c(C)cc(=O)[nH]c2c1OC [1g, 7,8-Dimethoxy-4-methylquinolin-2(1H)-one] = > 91.3 µM
COc1c(OC)c(OC)c2c(C)cc(=O)[nH]c2c1OC [1q] = > 71.7 µM
COc1ccc(OC)c2c(C)cc(=O)[nH]c12 [1k, 5,8-Dimethoxy-4-methylquinolin-2(1H)-one] = > 91.2 µM
COc1cc2c(C)cc(=O)n(C)c2c(OC)c1OC [1n] = > 76 µM
COc1cc(OC)c2c(c(C)cc(=O)n2C)c1OC [1p] = > 76 µM
Cc1cc(=O)n(C)c2c3c(ccc12)OCO3 [1b] = > 92.1 µM

Please state, for each entry, its recorded IC50 at 72 h.
1. Cc1cc(=O)[nH]c2ccccc12 [1c, 4-Methylquinolin-2(1H)-one]
2. COc1cc(OC)c2[nH]c(=O)cc(C)c2c1 [1i, 6,8-Dimethoxy-4-methylquinolin-2(1H)-one]

1. > 126 µM
2. > 91.3 µM

Complete the entry with IC50 at 72 h for COc1ccc2c(C)cc(=O)n(C)c2c1OC [1h]
> 85.8 µM
